Test: degree of order S (dichroic ratio CR) in ZLI 1840 at room temperature
Format: physicochemical
Parameters: key: S = (CR-1)/(CR+2), with CR = E∥/E⊥ dichroic ratio
Settings: ZLI 1840 wide-range mixture (Merck)
metric: Degree of order S

Ask: Complete the entry with Degree of order S for Cc1nn(-c2cc(C#N)c(N=Nc3ccc(N=Nc4ccc(N(C)C)cc4)cc3)c(C#N)c2)nc1C [Example 7]
Reply: 0,74

Ask: Complete the entry with Degree of order S for CCOC(=O)c1nn(-c2ccc(N=Nc3ccc(N=Nc4ccc(N(C)C)cc4)c4ccccc34)cc2)nc1C [Example 8]
Reply: 0,74

Ask: Complete the entry with Degree of order S for Cc1nn(-c2ccc(N=Nc3ccc(N4CCOCC4)cc3)cc2)nc1C [Example 1]
Reply: 0,64

Ask: Complete the entry with Degree of order S for Cc1ccc2nn(-c3ccc(N=Nc4ccc(N=Nc5ccc(N(C)Cc6ccccc6)cc5)cc4C)cc3C)nc2c1 [Example 25]
Reply: 0,76

Ask: Complete the entry with Degree of order S for Cc1ccc2nn(-c3ccc(N=Nc4ccc(N=Nc5ccc(NCc6ccccc6)cc5)cc4C)cc3C)nc2c1 [Example 23]
Reply: 0,79
